Source listed as ChEMBL document CHEMBL1201862.

Tested on: LXFL 529
assay name: NCI tumour cell line growth inhibition, 48 h
The source made the active and inactive calls. Rule as the data show it: active = GI50 up to about 1.1 µM and inactive = higher.
# output must be one of 1 = active, -1 = inactive

Consider the following illustrative entries.
- compound: "Cc1ccccc1NC(=O)C1C(=O)N(c2ccccc2C)C(=O)/C1=N\\N (centres undefined)"
  target entity: "LXFL 529"
  class: -1
- compound: "CC(Sc1ccccc1)C(CO)(CO)[N+](=O)[O-] (centres undefined)"
  target entity: "LXFL 529"
  class: -1
- compound: "CCN(CC)CCOc1ccc(C(=C2CCCCC2)c2ccc(OCCN(CC)CC)cc2)cc1"
  target entity: "LXFL 529"
  class: -1
- compound: "CC1(C)CC(N(C(=O)/C=C/c2ccc([N+](=O)[O-])o2)C2CCCCC2)CC(C)(C)N1"
  target entity: "LXFL 529"
  class: -1
- compound: "COC(=O)C1C(=O)CC2CCCCC21 (centres undefined)"
  target entity: "LXFL 529"
  class: -1

query: What call does the record list for "O=C1c2ccc3c4ccccc4n(-c4ccccc4)c3c2C(=O)N1c1ccc(Cl)cc1" ?
result: -1

query: What call does the record list for "O=C(CCn1[nH]c(=O)c(Cl)c(Cl)c1=O)NOCCCc1ccccc1" ?
result: -1

query: What call does the record list for CC1C2CC=CC(=O)[C@@]2(C)CCC12OCCO2 (some centres undefined) ?
result: -1

query: What call does the record list for "Cc1cnoc1/N=C1\C=C(Nc2oncc2C)C(=O)c2ccccc21" ?
result: -1

query: What call does the record list for C=C(C)[C@H](O)C(O)CC(C)[C@@H]1CCC23CC12CCC1[C@@]2(C)CCC(OC(C)=O)C(C)(C)C2CC(OC2OC(COC(C)=O)C(O)C(O)C2O)[C@]13C (some centres undefined) ?
result: -1

###

Test system: KM12
assay name: NCI tumour cell line growth inhibition, 48 h
Calls of active or inactive are those of the source. Cut-off read from the data, not from the text of the source: active = GI50 up to about 1.1 µM and inactive = higher.
# output must be one of label 1 for active, label 0 for inactive

Consider the following illustrative entries.
- smi: "COc1ccc(CSCc2cc(OC)c(OC)c(OC)c2)cc1"
  class: "label 0"
- smi: "CCCCSN1C(=O)c2ccccc2C1=S"
  class: "label 0"
- smi: "CC1=C[C@@H](C)C[C@]2(C)CC[C@H](O2)[C@]23CC[C@](CO)(C[C@H](O2)[C@@H]2O[C@@](C)(CC2=O)[C@@H](O)[C@H]2CC[C@@]4(CCC[C@@H](O4)[C@H](C)C(=O)O[C@H]4C[C@H]([C@]5(O)OCC[C@H](C)[C@@H]5O)O[C@H]4C=C1)O2)O3"
  class: "label 1"

Consider now this further compound.
query: What call does the record list for "CC(=O)Nc1ccc2c(c1)C(=O)c1cccc(F)c1-2" ?
result: label 1

###

Tested on: ACHN
assay name: NCI tumour cell line growth inhibition, 48 h
Active and inactive are the calls of the source. No stated cut-off is given here; in the data, active = GI50 up to about 1.1 µM and inactive = higher.
attribute measured: GI50

query: Dear colleague, I am looking for the recorded GI50 of the following compound: COC1OC(COC(=O)NCCCCC(=O)C(F)(F)F)C(O)C(O)C1O (stereo not drawn)
result: > 100 µM (inactive)

query: Dear colleague, I am looking for the recorded GI50 of the following compound: CC1(CC(=O)OC(C#C[Si](C)(C)C)Cc2ccccc2)OCCO1 (stereo not drawn)
result: > 100 µM (inactive)

query: Dear colleague, I am looking for the recorded GI50 of the following compound: "COC(=O)[C@H]1[C@@H](C(C)C)O[C@@H](C(C)C)O[C@H]1C(F)(F)F"
result: > 100 µM (inactive)

query: Dear colleague, I am looking for the recorded GI50 of the following compound: "O=C1O/C(=C\c2ccc(O)c(Br)c2)C(c2ccc(O)c(Cl)c2)=C1Br"
result: 15.2 µM (inactive)

query: Dear colleague, I am looking for the recorded GI50 of the following compound: "Cc1nnc(N)nc1/C=C\c1ccc(Cl)cc1Cl"
result: 36.4 µM (inactive)

###

Test system: SR
assay name: NCI tumour cell line growth inhibition, 48 h
Active and inactive are the calls of the source. Cut-off read from the data, not from the text of the source: active = GI50 up to about 1.1 µM and inactive = higher.
# output must be one of active, inactive

Consider the following illustrative entries.
- compound: "COC1C(CO)OC(n2c3c(Cl)cccc3c3c4c(c5c6cccc(Cl)c6[nH]c5c32)C(=O)NC4=O)C(O)C1O (stereo not drawn)"
  class: "active"
- compound: "CCOP1(=O)C=C(C)C(Cl)=C(C)C1 (stereo not drawn)"
  class: "inactive"

query: What call does the record list for "CCOC(=O)C(=O)Nc1ccc(C)c(C)c1" ?
result: active

###

System: M14
assay name: NCI tumour cell line growth inhibition, 48 h
The source made the active and inactive calls. Cut-off read from the data, not from the text of the source: active = GI50 up to about 1.1 µM and inactive = higher.
# output must be one of TRUE (active), FALSE (inactive)

Consider the following illustrative entries.
- compound: "COc1cc(/C=C2\\N=C(c3ccccc3)N(c3nc4cc(C)c(C)cc4s3)C2=O)ccc1O"
  class: "FALSE"
- compound: "COC1C(CO)OC(n2c3c(Cl)cccc3c3c4c(c5c6cccc(Cl)c6[nH]c5c32)C(=O)NC4=O)C(O)C1O (stereo not drawn)"
  class: "TRUE"
- compound: "[N-]=[N+]=NC1OC(=O)C(Cl)=C1N=P(c1ccccc1)(c1ccccc1)c1ccccc1 (stereo not drawn)"
  class: "FALSE"

query: What call does the record list for COc1cc2cc(C(=O)N3CC(COS(C)(=O)=O)c4c3cc([N+](=O)[O-])c3ccccc43)[nH]c2c(OC)c1OC (stereo not drawn) ?
result: FALSE

query: What call does the record list for "COC(=O)c1cc2c(nc1C)-c1ccccc1OS2(=O)=O" ?
result: FALSE

query: What call does the record list for Cc1ccc(NC(=O)C2C3C=CC(O3)C2C(=O)O)cc1 (stereo not drawn) ?
result: FALSE

###

System: SK-MEL-5
assay name: NCI tumour cell line growth inhibition, 48 h
Activity calls are given as the source filed them. Cut-off read from the data, not from the text of the source: active = GI50 up to about 1.1 µM and inactive = higher.
attribute measured: GI50

Past entries and their recorded results:
- molecule: "CN(C)CCNC(=O)c1cccc2ncc(-c3ccccc3)nc12"
  attribute measured: "GI50"
  value measured: "11.5 µM (inactive)"
- molecule: "Cc1cc(NS(=O)(=O)c2ccc(NC(=O)c3cccc4c(NNc5ccc(S(=O)(=O)N=C(N)N)cc5)c5ccccc5nc34)cc2)no1"
  attribute measured: "GI50"
  value measured: "44.7 µM (inactive)"
- molecule: "Cc1cc(N(CCOS(C)(=O)=O)CCOS(C)(=O)=O)ccc1/C=N/c1ccc(-c2csc(-c3ccc(Br)cc3)n2)cc1"
  attribute measured: "GI50"
  value measured: "14.2 µM (inactive)"
- molecule: "CC(=O)Nc1ccc(NNc2cc(=O)n(C)c(=O)[nH]2)cc1"
  attribute measured: "GI50"
  value measured: "16.7 µM (inactive)"
- molecule: "N=C1OC(c2cccc(Cl)c2)C(NNS(=O)(=O)c2ccccc2)=C1O (stereo unspecified)"
  attribute measured: "GI50"
  value measured: "41.7 µM (inactive)"

Now take the following molecule into account.
query: GET /values?readout=GI50&system=SK-MEL-5&item= CSC1NNC2(C(=O)N1)c1ccccc1-c1ccccc12 (stereo unspecified)
result: > 10 µM (inactive)

###

Tested on: OVCAR-5
assay name: NCI tumour cell line growth inhibition, 48 h
Calls of active or inactive are those of the source. Cut-off read from the data, not from the text of the source: active = GI50 up to about 1.1 µM and inactive = higher.
# output must be one of active, inactive

- molecule: "c1ccc2c(c1)nc1n2CCNC1"
  class: "inactive"
- molecule: "CC(=O)N1c2ccccc2C2=NN(C)C(=N)SC21 (stereo not given)"
  class: "inactive"
- molecule: "O=C1C=C(NCC(c2ccccc2)c2ccccc2)C(=O)c2ncccc21"
  class: "inactive"
- molecule: "CC1=C[C@@H](C)C[C@]2(C)CC[C@H](O2)[C@]23CC[C@](CO)(C[C@H](O2)[C@@H]2O[C@@](C)(CC2=O)[C@@H](O)[C@H]2CC[C@@]4(CCC[C@@H](O4)[C@H](C)C(=O)O[C@H]4C[C@H]([C@]5(O)OCC[C@H](C)[C@@H]5O)O[C@H]4C=C1)O2)O3"
  class: "active"
- molecule: "O=C1c2ccccc2C(=O)c2sc(Nc3ccc(Cl)c(Cl)c3)nc21"
  class: "inactive"
- molecule: "C=CCOCCCCC(C(C)=O)C(=O)OC (stereo not given)"
  class: "inactive"
- molecule: "COc1ccccc1/C=C1\\CCC(Cc2ccccc2)(CN(C)C)C1=O (stereo not given)"
  class: "inactive"
- molecule: "c1ccc(CCN2CCc3[nH]c4ccccc4c3C2)cc1"
  class: "inactive"

query: What call does the record list for "CC(C)C(=O)Nc1nc2[nH]cnc2c(=O)[nH]1" ?
result: inactive

query: What call does the record list for O=C(NC(Cc1c[nH]c2ccccc12)C(=O)O)/C(=C/c1ccccc1O)NC(=O)c1ccccc1 (stereo not given) ?
result: inactive

query: What call does the record list for "O=S(=O)(O)c1cccc2cccc(/N=N/c3c(O)ccc4ccccc34)c12" ?
result: inactive

query: What call does the record list for "C[C@]12CC[C@H]3[C@@H](CC=C4C[C@@H](O)CC[C@@]43C)[C@@H]1C/C(=C\c1ccncc1)[C@@H]2O" ?
result: inactive

query: What call does the record list for "O=C1c2cccc3c(Cl)ccc(c23)C(=O)N1CCCN1CCN(CCCN2C(=O)c3cccc4c(Cl)ccc(c34)C2=O)CC1" ?
result: inactive

query: What call does the record list for "O=[N+]([O-])c1ccc(NN=C2CN3CCN(C2)c2ccccc23)c([N+](=O)[O-])c1" ?
result: inactive
